Target or system: serotonin 2 receptor (Rattus norvegicus, UniProt P14842)
Sequence (P14842 whole entry): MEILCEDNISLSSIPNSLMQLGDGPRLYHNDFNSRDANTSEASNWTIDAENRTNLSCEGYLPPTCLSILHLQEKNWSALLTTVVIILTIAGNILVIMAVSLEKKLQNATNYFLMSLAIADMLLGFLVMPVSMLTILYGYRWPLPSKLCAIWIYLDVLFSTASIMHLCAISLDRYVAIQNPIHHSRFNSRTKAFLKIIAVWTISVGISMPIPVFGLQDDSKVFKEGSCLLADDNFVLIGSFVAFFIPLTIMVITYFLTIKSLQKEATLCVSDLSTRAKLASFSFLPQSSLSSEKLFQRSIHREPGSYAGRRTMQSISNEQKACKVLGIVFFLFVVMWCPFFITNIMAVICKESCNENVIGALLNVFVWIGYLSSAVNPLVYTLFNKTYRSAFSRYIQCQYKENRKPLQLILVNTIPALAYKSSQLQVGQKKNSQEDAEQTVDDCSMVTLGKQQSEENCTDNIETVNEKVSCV
Assay details: Binding test on [3H] ketanserin (serotonin 2 receptor)
Test context: [3H] ketanserin 0.3 nM, receptor fraction of rat cerebral cortex; read-out: 5HT2
pKi: −log10 of the molar value.
pKi vs 8: at or above is YES, below is NO.

Molecule	Target or system	Discrete label
c1ccc2c(c1)CCN2C1CCN(CCc2cnccn2)CC1 [Example 67]	serotonin 2 receptor (Rattus norvegicus, UniProt P14842)	NO
CC1CC(C2CCN(CCc3ccc(F)cc3)CC2)c2nccnc21 (mixture of isomers) [Example 266]	serotonin 2 receptor (Rattus norvegicus, UniProt P14842)	NO
CC(=O)NCc1ccc2c(c1)N(C1CCN(CCc3ccc(F)cc3)CC1)CC2 [Example 133]	serotonin 2 receptor (Rattus norvegicus, UniProt P14842)	YES
OCCOc1ccc2c(c1)CCCC2C1CCN(CCc2ccc(F)cc2)CC1 (centres unmarked) [Example 278]	serotonin 2 receptor (Rattus norvegicus, UniProt P14842)	YES
CN(C)c1ccc2c(c1)N(C1CCN(CCc3ccc(F)cc3)CC1)CC2 [Example 114]	serotonin 2 receptor (Rattus norvegicus, UniProt P14842)	NO

====

Entries and their measured Ki follow.
Target or system: serotonin 2 receptor (Rattus norvegicus, UniProt P14842)
Assay details: Binding test on [3H] ketanserin (serotonin 2 receptor)
Test context: [3H] ketanserin 0.3 nM, receptor fraction of rat cerebral cortex; read-out: 5HT2
Property measured: Ki

Structure string	Measurement
CC(=O)NCc1ccc2ccn(C3CCN(CCc4ccc(Br)cc4)CC3)c2c1	15.5 nM
Fc1cc(F)cc(CCN2CCC(N3CCc4ccccc43)CC2)c1	16.3 nM
O=C1NCCN1Cc1ccc2ccn(C3CCN(CCc4ccc(F)cc4)CC3)c2c1	6.87 nM

Where these numbers come from: patent US6579881B2
